The molecules listed here are annotated with their concentration at 3.8 h.
procedure_summary: Ibrutinib and SMT-conjugate pharmacokinetics in human subjects (plasma of patients A and B)
cond: human, 560 mg, Concentration, patient B, sample ID 20, T 3.8 h, 1xdd 560mg, group max

Consider the following illustrative entries.
molecule	concentration at 3.8 h
Nc1ncnc2c1c(-c1ccc(Oc3ccccc3)cc1)nn2[C@@H]1CCCN(C(=O)C(O)CO)C1 (stereo partly shown) [DHI, dihydrodiol-ibrutinib]	524 nM
Nc1ncnc2c1c(-c1ccc(Oc3ccccc3)cc1)nn2[C@@H]1CCCN(C(=O)CCSC[C@H](NC(=O)CC[C@H](N)C(=O)O)C(=O)NCC(=O)O)C1 [IGSH]	0.8 nM
Nc1ncnc2c1c(-c1ccc(Oc3ccccc3)cc1)nn2[C@@H]1CCCN(C(=O)CCSC[C@H](N)C(=O)O)C1 [ICYS]	78.7 nM

Query molecule follows.
// returns reported concentration at 3.8 h for input Nc1ncnc2c1c(-c1ccc(Oc3ccccc3)cc1)nn2[C@@H]1CCCN(C(=O)CCSC[C@H](N)C(=O)NCC(=O)O)C1 [ICGS]
78 nM

src = paper PMC7851014
